System: OVCAR8
Assay Explanation: drug sensitivity score (DSS2) on cancer cell count; higher = more sensitive; extreme values may be limits of the assay
Condition Notes: co-cultured fibroblast: BJHTERT; 72 h
Measured drug sensitivity score, listed per entry.
Use DSS as the unit, but write only the number.

                               smiles_input                endpoint  numeric_result
0  c1cc(CN2CCCNCCNCCCNCC2)ccc1CN1CCCNCCNCCCNCC1  drug sensitivity score             0.5

// next item, drug sensitivity score requested
Request the reported drug sensitivity score associated with "COc1cc(C)[nH]c(=O)c1CNC(=O)c1c(C)n([C@H](C)C2CCOCC2)c2ccccc12"
0

---

System: OVCAR8
Assay Explanation: drug sensitivity score (DSS2) on cancer cell count; higher = more sensitive; extreme values may be limits of the assay
Condition Notes: co-cultured fibroblast: BJHTERT; 72 h
Quick reference for drug sensitivity score among some molecules
Number in DSS, nothing else.

Smiles Input	Numeric Result
COc1cccc(-c2ccc(NC(=O)C3=C(C(=O)O)CCC3)c(F)c2)c1	0
CC1(C)CCC(CN2CCN(c3ccc(C(=O)NS(=O)(=O)c4ccc(NCC5CCOCC5)c([N+](=O)[O-])c4)c(Oc4cnc5[nH]ccc5c4)c3)CC2)=C(c2ccc(Cl)cc2)C1	0
Nc1ncnc2c1nc(N)n2[C@@H]1O[C@H](CO)[C@@H](O)[C@H]1O	17.9
CO[C@H]1C[C@@H]2CC[C@@H](C)[C@@](O)(O2)C(=O)C(=O)N2CCCC[C@H]2C(=O)O[C@H]([C@H](C)C[C@@H]2CC[C@@H](O)[C@H](OC)C2)CC(=O)[C@H](C)/C=C(\C)[C@@H](O)[C@@H](OC)C(=O)[C@H](C)C[C@H](C)/C=C/C=C/C=C/1C	4.5
CC[C@H](CO)Nc1nc(NCc2ccccc2)c2ncn(C(C)C)c2n1	4.9

Suppose we examine the molecule "CC[C@@H]1C(=O)N(C)c2cnc(Nc3ccc(C(=O)NC4CCN(C)CC4)cc3OC)nc2N1C1CCCC1" ; what drug sensitivity score value has been reported?
29.5

What do you get for "Cn1cc(-c2cnn3c(N)c(Br)c([C@@H]4CCCNC4)nc23)cn1" ?
7.8

Same question for "CCN(CC)CCNC(=O)c1c(C)[nH]c(/C=C2\C(=O)Nc3ccc(-c4csc(-c5ccccc5)n4)cc32)c1C" please.
3.3

Next entry: "O[C@H](C[C@H]1c2c(F)cccc2-c2cncn21)[C@H]1CC[C@H](O)CC1"
0

Now the same for "C=C1C[C@@H]2CC[C@@]34C[C@H]5O[C@H]6[C@@H](O3)[C@H]3O[C@H](CC[C@@H]3O[C@H]6[C@H]5O4)CC(=O)C[C@@H]3[C@@H](OC)[C@@H](C[C@H](O)CN)O[C@H]3C[C@H]3O[C@@H](CC[C@@H]1O2)C[C@@H](C)C3=C"
27.5

Now consider "NC(=O)Nc1cc(-c2cccc(F)c2)sc1C(=O)N[C@H]1CCCNC1" and answer again.
7.3

Would you kindly repeat that for "Cc1nc(C(=O)NCC(=O)O)c(O)c2ccc(Oc3ccccc3)cc12" ?
0

Then "CCn1c(C(=O)N(C2CC2)C2CC2)cc2c3c(ncn3C)c(Nc3cc(C)n(C)n3)nc21" ?
0

Moving on to the next molecule: "Cc1ccc(=O)n(-c2ccccc2)c1"
0
